assay: Multi-point microsome stability assay, mouse; type: in vitro ADME; settings: male, CD-1, mouse, mouse microsomal fractions, pH 7.4
Would you mind labelling by half-life at 1 μM? At or over 3 min is MET, under is NOT MET.

INSERT INTO measurements (molecule, group) VALUES
  ('C=C[C@H]1[C@H]2CCC[C@]1(c1cccc(O)c1)CCN2CC1CC1', 'NOT MET'),
  ('C=C[C@@H]1[C@H]2CCC[C@]1(c1cccc(O)c1)CCN2C', 'MET'),
  ('C=C[C@H]1[C@H]2CCC[C@]1(c1cccc(O)c1)CCN2CCc1ccc(F)cc1', 'MET'),
  ('C=C[C@H]1[C@H]2CCC[C@]1(c1cccc(O)c1)CCN2CCc1ccc(O)cc1', 'MET'),
  ('C=C[C@H]1C2CCCC1(c1cccc(O)c1)CCN2CCc1ccccc1[N+](=O)[O-] (stereo in doubt)', 'NOT MET'),
  ('C=C[C@H]1[C@H]2CCC[C@]1(c1cccc(O)c1)CCN2CCc1ccccc1 [DC-1–76.2, reference compound]', 'MET'),
  ('C=C[C@H]1[C@H]2CCC[C@]1(c1cccc(O)c1)CCN2CCc1cccs1', 'NOT MET'),
  ('C=C[C@H]1C2CCCC1(c1cccc(O)c1)CCN2CCc1cccc(O)c1 (stereo in doubt)', 'MET'),
  ('C=C[C@H]1[C@H]2CCC[C@]1(c1cccc(O)c1)CCN2CCc1cccc([N+](=O)[O-])c1', 'MET');

----------
biological target: UniProt P41145; experiment: Forskolin-induced cAMP accumulation assay, KOR antagonist mode
Sequence (P41145 whole entry): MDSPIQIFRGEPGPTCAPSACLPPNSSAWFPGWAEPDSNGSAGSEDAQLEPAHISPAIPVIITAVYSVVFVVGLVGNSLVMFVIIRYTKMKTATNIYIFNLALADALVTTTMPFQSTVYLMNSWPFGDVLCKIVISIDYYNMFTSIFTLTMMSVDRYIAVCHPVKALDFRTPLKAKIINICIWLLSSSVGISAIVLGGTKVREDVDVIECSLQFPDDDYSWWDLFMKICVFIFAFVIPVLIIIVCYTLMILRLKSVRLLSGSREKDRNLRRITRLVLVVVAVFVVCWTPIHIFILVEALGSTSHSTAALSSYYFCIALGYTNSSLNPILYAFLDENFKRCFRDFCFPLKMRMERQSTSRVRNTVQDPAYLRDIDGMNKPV
pIC50: −log10 of the molar value.
Catalogue of compounds with associated pIC50
REPORTED_PROPERTY: pIC50

INSERT INTO results (compound, reported_property, measurement) VALUES
  ('C=C[C@H]1[C@H]2CCC[C@]1(c1cccc(O)c1)CCN2C [compound 11]', 'pIC50', '< 5.00'),
  ('C=C[C@@H]1[C@H]2CCC[C@]1(c1cccc(O)c1)CCN2C [compound 10]', 'pIC50', '< 5.00'),
  ('C=C[C@H]1[C@H]2CCC[C@]1(c1cccc(C(N)=O)c1)CCN2CCc1ccccc1 [compound 5]', 'pIC50', '< 5.00');

----------
molecular target: UniProtKB P41143; assay: Forskolin-induced cAMP accumulation assay, DOR agonist mode
Sequence (P41143 whole entry): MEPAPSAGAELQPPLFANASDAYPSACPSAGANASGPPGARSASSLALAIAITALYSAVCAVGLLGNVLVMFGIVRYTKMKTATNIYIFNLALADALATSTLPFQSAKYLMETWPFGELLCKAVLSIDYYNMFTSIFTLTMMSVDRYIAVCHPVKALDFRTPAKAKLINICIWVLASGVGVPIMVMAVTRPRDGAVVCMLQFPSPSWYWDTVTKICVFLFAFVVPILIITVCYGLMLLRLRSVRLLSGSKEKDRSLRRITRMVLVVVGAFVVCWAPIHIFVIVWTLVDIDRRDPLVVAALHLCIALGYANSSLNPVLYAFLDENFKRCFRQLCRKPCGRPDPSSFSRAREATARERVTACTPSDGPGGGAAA
pEC50: −log10 of the molar value.
Catalogue of compounds with associated pEC50
REPORTED_PROPERTY: pEC50

INSERT INTO assay_data (compound, reported_property, measurement) VALUES
  ('C=C[C@H]1[C@H]2CCC[C@]1(c1cccc(O)c1)CCN2CCc1ccc(F)cc1 [compound 19]', 'pEC50', '< 5.00'),
  ('C=C[C@H]1[C@H]2CCC[C@]1(c1cccc(O)c1)CCN2CCc1ccc(O)cc1 [compound 20]', 'pEC50', '< 5.00'),
  ('C=C[C@H]1[C@H]2CCC[C@]1(c1cccc(C(N)=O)c1)CCN2CCc1ccccc1 [compound 5]', 'pEC50', 8.22),
  ('C=C[C@H]1[C@H]2CCC[C@]1(c1cccc(O)c1)CCN2CC1CC1 [compound 15]', 'pEC50', '< 5.00'),
  ('C=C[C@H]1[C@H]2CCC[C@]1(c1cccc(O)c1)CCN2C [compound 11]', 'pEC50', '< 5.00'),
  ('C=C[C@H]1C2CCCC1(c1cccc(O)c1)CCN2CCc1ccccc1[N+](=O)[O-] (stereo in doubt) [compound 24]', 'pEC50', 6.02),
  ('C=C[C@@H]1[C@H]2CCC[C@]1(c1cccc(O)c1)CCN2C [compound 10]', 'pEC50', '< 5.00');
